test: Steady-state kinetics: turnover
Type: biochemical, Chromobacterium violaceum
particulars: enzyme variant as labelled; DMPH4 cofactor, 20 °C, pH 7.4
parameter-measured: kcat

Using known records, supply kcat for D139A (protein, UniProt P30967 1-297, looked up, variant D139A) Phenylalanine-4-hydroxylase: MNDRADFVVPDITTRKNVGLSHDANDFTLPQPLDRYSAEDHATWATLYQRQCKLLPGRACDEFMEGLERLEVDADRVPDFNKLNQKLMAATGWKIVAVPGLIPDDVFFEHLANRRFPVTWWLREPHQLDYLQEPDVFHALFGHVPLLINPVFADYLEAYGKGGVKAKALGALPMLARLYWYTVEFGLINTPAGMRIYGAGILSSKSESIYCLDSASPNRVGFDLMRIMNTRYRIDTFQKTYFVIDSFKQLFDATAPDFAPLYLQLADAQPWGAGDVAPDDLVLNAGDRQGWADTEDV
0.19 ± 0.01 s^–1
